# target entity: F508delCFTR (Homo sapiens, UniProt P13569, DEL508-508)
# Construct: expressed in transfected cells; host or cells: CFBE41o- human lung-derived epithelial cells (CFBE4lo-F508delCFTR-HRP), doxycycline-inducible
# Sequence (P13569 with tags, fused parts or gaps DEL508-508): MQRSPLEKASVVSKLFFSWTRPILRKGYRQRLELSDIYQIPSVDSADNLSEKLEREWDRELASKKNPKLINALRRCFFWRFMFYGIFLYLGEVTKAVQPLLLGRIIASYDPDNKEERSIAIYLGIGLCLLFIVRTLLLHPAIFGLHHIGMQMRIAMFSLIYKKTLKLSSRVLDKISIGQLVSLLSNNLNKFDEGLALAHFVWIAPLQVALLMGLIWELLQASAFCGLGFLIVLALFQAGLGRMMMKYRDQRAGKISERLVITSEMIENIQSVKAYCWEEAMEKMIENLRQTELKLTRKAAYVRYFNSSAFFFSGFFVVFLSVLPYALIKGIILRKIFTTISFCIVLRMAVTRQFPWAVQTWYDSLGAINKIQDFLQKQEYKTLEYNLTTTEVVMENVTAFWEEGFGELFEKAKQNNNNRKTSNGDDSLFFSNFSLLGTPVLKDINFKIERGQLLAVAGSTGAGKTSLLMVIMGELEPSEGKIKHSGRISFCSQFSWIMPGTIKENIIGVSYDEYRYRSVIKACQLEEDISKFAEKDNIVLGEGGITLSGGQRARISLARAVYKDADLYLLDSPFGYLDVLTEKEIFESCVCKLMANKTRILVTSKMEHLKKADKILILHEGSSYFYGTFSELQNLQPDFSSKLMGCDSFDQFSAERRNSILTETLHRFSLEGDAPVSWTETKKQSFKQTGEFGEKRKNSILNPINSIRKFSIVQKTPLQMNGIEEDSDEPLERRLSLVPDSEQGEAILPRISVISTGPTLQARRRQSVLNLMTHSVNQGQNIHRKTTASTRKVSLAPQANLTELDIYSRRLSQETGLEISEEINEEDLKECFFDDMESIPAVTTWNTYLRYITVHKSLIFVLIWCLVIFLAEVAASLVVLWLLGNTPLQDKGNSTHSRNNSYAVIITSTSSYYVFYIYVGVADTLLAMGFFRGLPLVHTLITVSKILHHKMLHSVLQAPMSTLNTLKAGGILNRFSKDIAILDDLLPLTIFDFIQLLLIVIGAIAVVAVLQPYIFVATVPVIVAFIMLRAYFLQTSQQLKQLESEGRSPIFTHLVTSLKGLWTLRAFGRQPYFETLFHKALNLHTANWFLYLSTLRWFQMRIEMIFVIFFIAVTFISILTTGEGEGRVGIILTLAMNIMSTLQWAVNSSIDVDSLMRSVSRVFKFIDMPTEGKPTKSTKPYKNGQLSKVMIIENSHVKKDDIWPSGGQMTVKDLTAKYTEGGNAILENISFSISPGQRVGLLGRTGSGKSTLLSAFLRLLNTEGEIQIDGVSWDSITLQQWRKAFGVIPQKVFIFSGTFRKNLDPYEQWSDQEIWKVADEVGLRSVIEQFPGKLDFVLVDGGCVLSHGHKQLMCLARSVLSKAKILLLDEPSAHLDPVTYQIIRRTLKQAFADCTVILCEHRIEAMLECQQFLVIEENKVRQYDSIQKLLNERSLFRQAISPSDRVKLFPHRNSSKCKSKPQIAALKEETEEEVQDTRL
# test summary: Cell Surface Expression-Horse Radish Peroxidase (CSE-HRP) Assay
# Format: cell-based
# condition context: test compound without co-corrector; read-out: EC50 (without co-corrector)
pEC50: −log10 of the molar value.
property: pEC50

INSERT INTO results (molecule, target_entity, recorded_result) VALUES
  ('COc1ncc(C2CCC2)cc1CN[C@H]1[C@H](C(C)(C)C)[C@@H](C(=O)O)N(C(=O)[C@@H]2CCC[C@@H](F)C2)[C@H]1c1ccccc1 [II-532]', 'F508delCFTR (Homo sapiens, UniProt P13569, DEL508-508)', '5.00 to 6.00'),
  ('COc1ccc(C(F)(F)F)cc1CN[C@H]1[C@H](C(C)(C)C)[C@@H](C(=O)O)N(C(=O)CC2CCCCO2)[C@H]1c1ccccc1 (some centres unmarked) [Example I-84]', 'F508delCFTR (Homo sapiens, UniProt P13569, DEL508-508)', '5.00 to 6.00'),
  ('COc1ccc2c(c1)[C@@](C)(C(=O)N1[C@H](C(=O)O)[C@@H](C(C)(C)C)[C@H](NCc3cc(C(C)(C)C)ccc3OC)[C@@H]1c1cccnc1OC)CC2 [II-569]', 'F508delCFTR (Homo sapiens, UniProt P13569, DEL508-508)', '5.00 to 6.00'),
  ('COc1ncc(C2CCC2)cc1CN[C@H]1[C@H](C(C)(C)C)[C@@H](C(=O)O)N(C(=O)[C@@H]2CCCO2)[C@H]1c1ccccc1Cl [Example 103]', 'F508delCFTR (Homo sapiens, UniProt P13569, DEL508-508)', '5.00 to 6.00'),
  ('COc1ccc(C23CC(C2)C3)cc1CN[C@H]1[C@H](C(C)(C)C)[C@@H](C(=O)O)N(C(=O)[C@@H]2CCCCO2)[C@H]1c1cccnc1N(C)C [Example 51]', 'F508delCFTR (Homo sapiens, UniProt P13569, DEL508-508)', '5.00 to 6.00'),
  ('COc1ccc(C(F)(F)F)cc1C(C)N[C@@H]1[C@@H](C(C)(C)C)[C@H](C(=O)O)N(C(=O)C2CCCCC2)[C@@H]1c1ccccc1 (mixture of isomers) [Example I-8]', 'F508delCFTR (Homo sapiens, UniProt P13569, DEL508-508)', '5.00 to 6.00'),
  ('COc1ncc(C2CCC2)cc1CN[C@H]1[C@H](C(C)(C)C)[C@@H](C(=O)O)N(C(=O)OC(C)C)[C@H]1c1ccccc1C [Example 94]', 'F508delCFTR (Homo sapiens, UniProt P13569, DEL508-508)', '5.00 to 6.00'),
  ('COc1cc(C(F)(F)F)ccc1CN[C@H]1[C@H](C(C)(C)C)[C@@H](C(=O)O)N(C(=O)CC(C)C)[C@H]1c1ccccc1 [II-558]', 'F508delCFTR (Homo sapiens, UniProt P13569, DEL508-508)', '5.00 to 6.00');

// COc1ccc(C(C)(C)C)cc1CN[C@H]1[C@H](C(C)(C)C)[C@@H](C(=O)O)N(C(=O)Cc2ccc(F)cc2F)[C@H]1c1ccccc1 [III-173] : pEC50 value = 5.00 to 6.00

// COc1ncc(-c2ccccc2F)cc1CN[C@H]1[C@H](C(C)(C)C)[C@@H](C(=O)O)N(C(=O)C2CCCCC2)[C@H]1c1ccccc1 [Example I-140] : pEC50 value = > 6.00

// COc1ccc(C(C)(C)C)cc1CN[C@H]1[C@H](C(C)(C)C)[C@@H](C(=O)O)N(C(=O)c2cnn(C(C)(C)C)c2C(F)(F)F)[C@H]1c1ccccc1 [II-360] : pEC50 value = 5.00 to 6.00

// COc1nc(C(C)(C)C)ccc1CN[C@H]1[C@H](C(C)(C)C)[C@@H](C(=O)O)N(C(=O)C2CCCC(F)(F)C2)[C@H]1c1ccccc1 (relative stereo) [Example 53] : pEC50 value = 5.00 to 6.00

// COc1ccc(C2(C(F)(F)F)CC2)cc1CN[C@H]1[C@H](C(C)(C)C)[C@@H](C(=O)O)N(C(=O)OC(C)C)[C@H]1c1cccnc1N(C)C [II-559] : pEC50 value = 5.00 to 6.00

// COc1ccc(C(F)(F)F)cc1CN[C@H]1[C@H](C(C)(C)C)[C@@H](C(=O)O)N(C(=O)C2CC(C)CC(C)C2)[C@H]1c1ccccc1 (some centres unmarked) [III-196] : pEC50 value = > 6.00

// COc1ccc(C(C)(C)C(F)(F)F)cc1CN[C@H]1[C@H](C(C)(C)C)[C@@H](C(=O)O)N(C(=O)C2CCCCC2)[C@H]1c1ccccc1 [Example I-213] : pEC50 value = 5.00 to 6.00
